assay.text: self-splicing fitness, log relative to wild type (ln ratio); higher = more splicing; Tetrahymena group I intron in knt gene, E. coli kanamycin selection, DiMSum; sequences stand for … in CUCUCU…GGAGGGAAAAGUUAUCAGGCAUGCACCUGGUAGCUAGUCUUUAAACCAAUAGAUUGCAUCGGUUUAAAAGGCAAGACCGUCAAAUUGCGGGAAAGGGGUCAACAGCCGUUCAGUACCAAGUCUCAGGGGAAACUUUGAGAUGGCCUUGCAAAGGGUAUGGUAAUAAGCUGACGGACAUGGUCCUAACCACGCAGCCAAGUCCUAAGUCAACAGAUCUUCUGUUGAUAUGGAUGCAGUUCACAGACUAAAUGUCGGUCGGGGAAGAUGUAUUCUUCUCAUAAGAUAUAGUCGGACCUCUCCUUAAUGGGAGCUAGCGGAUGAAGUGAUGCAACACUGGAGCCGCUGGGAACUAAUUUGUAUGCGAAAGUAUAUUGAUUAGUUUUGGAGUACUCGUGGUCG;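 also: selection with 25 µg/mL kanamycin versus none on LB agar overnight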
assay.context: 30 °C
Consider the following sequences; for each one, report its self-splicing fitness (ln).
Give bare numbers.

Note to self: self-splicing fitness (ln) recorded for ACUGAGCAAUAUUACGUAUG was -3.4

Lookup result for CCCAAGCAAUAUUACGUAAC ; measured self-splicing fitness (ln): -3.6

// self-splicing fitness (ln) lookup, sequence = CUUAAGCAAUAUUACGAGAA , result: -2.01

self-splicing fitness (ln) for AUCCAGCAAUAUUACGCACC is -1.19

self-splicing fitness (ln) reported for this sequence GAAAAGCAAUAUUACGCACU : -0.498

// self-splicing fitness (ln) value for UUGUAGCAAUAUUACGGCAA : -0.208

self-splicing fitness (ln) in this record for UGCGAGCAAUAUUACGGUAA : -2.4

The record that follows has no self-splicing fitness (ln) shown yet.
The value of self-splicing fitness (ln) measured for the sequence CUCCAGCAAUAUUACGUAUU turned out to be -4.45
